EXPERIMENTAL PROTOCOL: Example 18 Part 2: multiple dose PK (20 mg QID) of 3,4-DAP and 3-N-acetyl metabolite in slow and fast acetylators
Type: in vivo, human
STUDY CONDITIONS: both sexes, human, plasma, oral, 20 mg, Day 3, Dose 3, fast acetylators, 20 mg QID; read-out: Mean AUC0-4
MEASURED PROPERTY: AUC(0-t) (ng·h/mL)
Quick reminder: number only, in ng·h/mL, skip the unit.

Exam item: Given the entry `Nc1ccncc1N` , report its measured AUC(0-t).
Marked response: 25.8

* * *

EXPERIMENTAL PROTOCOL: Example 18 Part 2: multiple dose PK (20 mg QID) of 3,4-DAP and 3-N-acetyl metabolite in slow and fast acetylators
Assay type: in vivo, human
STUDY CONDITIONS: both sexes, human, plasma, oral, 20 mg, Day 3, Dose 2, fast acetylators, 20 mg QID; read-out: Mean AUC0-4
MEASURED PROPERTY: AUC(0-t) (µg·h/mL)
Quick reminder: number only, in µg·h/mL, skip the unit.

Exam item: Given the entry Nc1ccncc1N [3,4-DAP, 3,4-diaminopyridine] , report its measured AUC(0-t).
Marked response: 0.0285

Numbers sourced from patent US11274332B2.
